Biological target: T1, SRA domain of mouse UHRF1 (Mus musculus, UniProt Q8VDF2 419-628)
T1 sequence: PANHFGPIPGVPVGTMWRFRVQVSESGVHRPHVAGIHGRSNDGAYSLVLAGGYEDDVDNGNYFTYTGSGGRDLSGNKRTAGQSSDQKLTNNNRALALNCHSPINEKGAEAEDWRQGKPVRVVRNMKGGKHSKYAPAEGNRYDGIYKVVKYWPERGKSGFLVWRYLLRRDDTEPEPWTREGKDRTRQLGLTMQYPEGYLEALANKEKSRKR
Assay: MST; MST: PBS-T (0.05% Tween-20), 50 nM labelled SRA, 20 min, room temperature; EMSA: 20 mM Tris-HCl pH 7.5, 150 mM NaCl, 0.5 mM EDTA, 1 mM DTT, 100 ng/ul BSA, 250 nM of each DNA, 4.69-300 nM protein, 30 min on ice, 6% PAGE 0.5x TBE; melting: 50 mM Tris-HCl pH 7.5, 0.5 mM b-ME, 10 mM EDTA
Conditions: protein: recombinant; tags: His6; NT-647 (RED-tris-NTA) label in MST; label: ATTO550 or ATTO647N (EMSA)
assay-readout: Kd (nM)
Only the number, expressed in nM, is required.

The reported value for 42 bp C-C' (dsDNA, none) DNA 1: GGATGATGACTCTTCTGGTCCGGATGGTAGTTAAGTGTTGAG DNA 2: CTCAACACTTAACTACCATCCGGACCAGAAGAGTCATCATCC in terms of Kd is 1100

Value source: paper PMC7034832
